Provenance of the data: patent US20260007681A1

protocol_description: Cell growth assay (WST-8) (Compounds B1-B278)
Type: cell-based
protocol_conditions: 96 h; T47D cell line; WST-8, 4 days; read-out: Cell Growth Inhibition in T47D cell line IC50
Here, each record is paired with measured IC50 data.

Worked examples, 2 molecules total:
| molecule | IC50 |
| --- | --- |
| C[C@@H]1Cc2c([nH]c3ccccc23)[C@@H](c2c(F)cc(N3CCC(CN4CCN5c6ccc7c(c6OC[C@H]5C4)CN(C4CCC(=O)NC4=O)C7=O)CC3)cc2F)N1CC(C)(C)F (mixture of isomers) | < 1 nM |
| COc1cc(N2CCC3(CC2)CC(CN2CCN4c5ccc6c(c5OC[C@H]4C2)CN(C2CCC(=O)NC2=O)C6=O)CO3)ccc1[C@@H]1c2[nH]c3ccccc3c2C[C@@H](C)N1CC(F)F (stereo partly drawn) | < 1 nM |

Query molecule follows.
Please look up its IC50: C[C@@H]1Cc2c([nH]c3ccccc23)[C@@H](c2cnc(N3CCC4(CCC(N5CCN6c7ccc8c(c7OC[C@H]6C5)CN(C5CCC(=O)NC5=O)C8=O)CC4)CC3)nc2)N1CC(C)(C)F (stereo partly drawn)
1 to 10 nM

====

tested_on: ER (Homo sapiens (Human))
protocol_description: Western blot analysis (Compounds B1-B278)
Format: cell-based
protocol_conditions: ER degradation by traditional Western blot; DC50 classes
property: Traditional Western Degradation Potency

| compound | value |
| --- | --- |
| C[C@@H]1Cc2c([nH]c3ccccc23)[C@@H](c2c(F)cc(N3CC(C(=O)N4CCC(CN5Cc6cc7c(cc6C5)C(=O)N(C5CCC(=O)NC5=O)C7=O)CC4)C3)cc2F)N1CC(F)F (stereo partly drawn) [Compound B76] | A (“A”: <10 nM) |
| C[C@@H]1Cc2c([nH]c3ccccc23)[C@@H](c2c(F)cc(N3CCC4(CC3)CC(C(=O)N3CCC(N5Cc6cc7c(cc6C5)C(=O)N(C5CCC(=O)NC5=O)C7)CC3)C4)cc2F)N1CC(F)F (stereo partly drawn) | A (“A”: <10 nM) |

====

Here, each record is paired with measured DC50 data.
tested_on: ER in MCF-7 cells (Homo sapiens (Human), UniProt P03372)
Sequence (P03372 whole entry): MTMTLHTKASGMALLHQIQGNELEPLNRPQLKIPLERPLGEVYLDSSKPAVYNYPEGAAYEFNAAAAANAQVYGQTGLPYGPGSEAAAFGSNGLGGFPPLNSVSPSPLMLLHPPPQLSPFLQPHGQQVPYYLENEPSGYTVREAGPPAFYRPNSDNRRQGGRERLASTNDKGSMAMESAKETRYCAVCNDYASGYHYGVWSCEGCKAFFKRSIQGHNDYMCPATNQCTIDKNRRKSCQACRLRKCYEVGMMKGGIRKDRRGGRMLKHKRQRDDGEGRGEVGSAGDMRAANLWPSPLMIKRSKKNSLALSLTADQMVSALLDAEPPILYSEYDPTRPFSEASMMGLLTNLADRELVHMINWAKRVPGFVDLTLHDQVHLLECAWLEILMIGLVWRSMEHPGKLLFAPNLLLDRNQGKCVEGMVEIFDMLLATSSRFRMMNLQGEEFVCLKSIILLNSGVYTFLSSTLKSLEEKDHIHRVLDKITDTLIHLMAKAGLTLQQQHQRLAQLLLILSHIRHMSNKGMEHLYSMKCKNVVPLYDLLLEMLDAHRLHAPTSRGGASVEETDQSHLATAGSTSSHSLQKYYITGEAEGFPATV
protocol_description: In-cell western (ICW) ER degradation assay in MCF-7 cells (Compounds A1-A70)
Assay type: cell-based
protocol_conditions: ER degradation, MCF-7 cells, 16 hrs treatment, 0.02 to 300 nM; read-out: MCF7 ICW DC50
Procedure: ERa degradative activity of compounds can be assessed in MCF-7 and T47D Cells. MCF-7 and T47D cell are seeded and are subsequently treated with the compounds at certain concentrations (e.g., 0.02 to 300 nM). DMSO can be used as vehicle control. Cells are fixed and are blocked with Intercept (PBS) Blocking Buffer (e.g., Li—COR, Odyssey Blocking Buffer), and are stained with ER (e.g., 1:500, Cell signaling) primary antibody for overnight at cold room. […]

Worked examples, 2 molecules total:
| molecular_string | tested_on | DC50 |
| --- | --- | --- |
| C[C@@H]1Cc2c([nH]c3ccccc23)[C@@H](c2cnc(N3CCC4(CCC(CN5CCN6c7cc8c(cc7OC[C@@H]6C5)C(=O)N([C@H]5CCC(=O)NC5=O)C8)CC4)CC3)nc2)N1CC(C)(C)F | ER in MCF-7 cells (Homo sapiens (Human), UniProt P03372) | < 1 nM |
| C[C@H]1Cc2c([nH]c3ccccc23)[C@H](c2cnc(N3CCC4(CC3)C[C@H](CN3CCC(c5ccc(N[C@H]6CCC(=O)NC6=O)cc5)CC3)CO4)nc2)N1CC(F)F | ER in MCF-7 cells (Homo sapiens (Human), UniProt P03372) | < 1 nM |

Please look up its DC50: C[C@@H]1Cc2c([nH]c3ccccc23)[C@H](c2cnc(N3CCC4(CC3)C[C@@H](CN3CCN5c6ccc(C(=O)N[C@H]7CCC(=O)NC7=O)nc6OC[C@H]5C3)CO4)nc2)N1CC(F)F
1 to 10 nM

====

Here, each record is paired with measured DC50 data.
tested_on: ER (Homo sapiens (Human), UniProt P03372)
Sequence (P03372 whole entry): as above
protocol_description: In-cell western blot analysis of relative ER percentage (Compounds B1-B278)
Type: cell-based
protocol_conditions: ER degradation, 16 hours, read-out: ICW DC50

Worked examples, 5 compounds total:
| compound | tested_on | DC50 |
| --- | --- | --- |
| C[C@@H]1Cc2c([nH]c3ccccc23)[C@@H](c2c(F)cc(-c3ncc(C(=O)N4CCN5c6cc7c(cc6OC[C@@H]5C4)C(=O)N([C@H]4CCC(=O)NC4=O)C7)cn3)cc2F)N1CC(F)F | ER (Homo sapiens (Human), UniProt P03372) | 10 to 100 nM |
| C[C@@H]1Cc2c([nH]c3ccccc23)[C@@H](c2cnc(N3CCC(CN4CCC5(CCOc6c5ccc5c6CN(C6CCC(=O)NC6=O)C5=O)CC4)CC3)nc2)N1CC(F)F (some centres unmarked) | ER (Homo sapiens (Human), UniProt P03372) | 10 to 100 nM |
| C[C@@H]1Cc2c([nH]c3ccccc23)[C@@H](c2cnc(N3CC4(C3)OCC(CN3CCN5c6cc7c(cc6OC[C@@H]5C3)C(=O)N(C3CCC(=O)NC3=O)C7)CO4)nc2)N1CC(F)(F)CO (some centres unmarked) | ER (Homo sapiens (Human), UniProt P03372) | > 100 nM |
| C[C@@H]1Cc2c([nH]c3ccccc23)[C@@H](c2cnc(N3CCC4(CC3)CC(CN3CCN5c6cc7c(cc6OC[C@@H]5C3)C(=O)N(C3CCC(=O)NC3=O)C7)C4)nc2)N1CC(F)F (some centres unmarked) | ER (Homo sapiens (Human), UniProt P03372) | < 10 nM |
| C[C@@H]1Cc2c([nH]c3ccccc23)[C@@H](c2c(F)cc(NC3CN(C(=O)CN4CCN5c6cc7c(cc6OC[C@@H]5C4)C(=O)N(C4CCC(=O)NC4=O)C7)C3)cc2F)N1CC(F)(F)CO (some centres unmarked) | ER (Homo sapiens (Human), UniProt P03372) | 10 to 100 nM |

Please look up its DC50: C[C@@H]1Cc2c([nH]c3ccccc23)[C@@H](c2cnc(N3CCC4(CC3)CC(CN3CCN5c6ccc7c(c6OC[C@@H]5C3)CN(C3CCC(=O)NC3=O)C7=O)C4)nc2)N1CC(F)F (some centres unmarked)
10 to 100 nM

Please look up its DC50: COc1cc(N2CC3(CCC(CN4CCN5c6cc7c(cc6OC[C@@H]5C4)C(=O)N(C4CCC(=O)NC4=O)C7)CO3)C2)ccc1[C@@H]1c2[nH]c3ccccc3c2C[C@@H](C)N1CC(F)F (some centres unmarked)
10 to 100 nM

Please look up its DC50: C[C@@H]1Cc2c([nH]c3ccccc23)[C@@H](c2cnc(N3CC4(C3)OCC(CN3CCN5c6ccc7c(c6OC[C@H]5C3)CN([C@H]3CCC(=O)NC3=O)C7=O)CO4)nc2)N1CC(F)(F)CO
> 100 nM

Please look up its DC50: C[C@@H]1Cc2c([nH]c3ccccc23)[C@@H](c2cnc(N3CCC(CN4CCN5c6ccc7c(c6OC[C@H]5C4)CN(C4CCC(=O)NC4=O)C7=O)CC3)nc2)N1CC(F)F (mixture of isomers) [Compound B254]
10 to 100 nM

Please look up its DC50: C[C@@H]1Cc2c([nH]c3ccccc23)[C@@H](c2c(F)cc(N3CCC(CN4CCN5c6ccc7c(c6OC[C@H]5C4)CN(C4CCC(=O)NC4=O)C7=O)CC3)cc2F)N1CC(C)(C)F (mixture of isomers) [Compound B259]
> 100 nM

Please look up its DC50: COc1cc(N2CCC3(CC2)CC(CN2CCC4(CC2)COc2c4ccc4c2CN(C2CCC(=O)NC2=O)C4=O)C3)ccc1[C@@H]1c2[nH]c3ccccc3c2C[C@@H](C)N1CC(F)F (some centres unmarked)
< 10 nM

Please look up its DC50: C[C@@H]1Cc2c([nH]c3ccccc23)[C@@H](c2cnc(N3CCC4(CCC(N5CCN6c7cc8c(cc7OC[C@@H]6C5)C(=O)N(C5CCC(=O)NC5=O)C8)CC4)CC3)nc2)N1CC(F)F (some centres unmarked)
10 to 100 nM

Please look up its DC50: C[C@@H]1Cc2c([nH]c3ccccc23)[C@@H](c2cnc(N3CCC(OCCN4CCN5c6cc7c(cc6OC[C@@H]5C4)C(=O)N([C@@H]4CCC(=O)NC4=O)C7)CC3)nc2)N1CC(F)F
10 to 100 nM

Please look up its DC50: C[C@@H]1Cc2c([nH]c3ccccc23)[C@@H](c2ccc(N3CCC4(CC3)CC(CN3CCN5c6cc7c(cc6OC[C@@H]5C3)C(=O)N(C3CCC(=O)NC3=O)C7)CO4)cn2)N1CC(F)(F)F (some centres unmarked) [Compound B147]
10 to 100 nM
